# System: rodent lifetime carcinogenesis bioassay, tumor incidence TD50
# testDetails: carcinogenic potency in animals, long-term in vivo studies, CPDB compilation (AID 1745844)
# conditionsUsed: mouse; strain B6C3F1; males; inhaled; site: lymphoreticular system; lesion: histiocytic sarcoma; dosed 40 weeks; study length 105 weeks
endpointName: TD50

input: Please list TD50 recorded for the molecule C=CC(=C)C
output: 4430 mg/kg/day

----------
# Tested on: rodent lifetime carcinogenesis bioassay, tumor incidence TD50
# testDetails: carcinogenic potency in animals, long-term in vivo studies, CPDB compilation (AID 1745844)
# conditionsUsed: mouse; strain Swiss albino; males; in drinking water; site: kidney; lesion: several types; types named in the paper; dosed 87 weeks; study length 87 weeks
endpointName: TD50

input: Identify measured TD50 obtained with rodent lifetime carcinogenesis bioassay, tumor incidence TD50 for CCCCNNCCCC .
output: 449 mg/kg/day

----------
# Test system: rodent lifetime carcinogenesis bioassay, tumor incidence TD50
# testDetails: carcinogenic potency in animals, long-term in vivo studies, CPDB compilation (AID 1745844)
# conditionsUsed: rat; strain F344/DuCrj; males; in feed; site: Zymbal's gland; lesion: squamous-cell papilloma; dosed 61 weeks; study length 61 weeks
endpointName: TD50 (mg/kg/day)
Please reply with the bare figure in mg/kg/day and do not write the unit itself.

input: Please list TD50 recorded for the compound Cc1cnc2ccc3c(nc(N)n3C)c2n1
output: 35.8

----------
# Tested on: rodent lifetime carcinogenesis bioassay, tumor incidence TD50
# testDetails: carcinogenic potency in animals, long-term in vivo studies, CPDB compilation (AID 1745844)
# conditionsUsed: mouse; strain B6C3F1; females; inhaled; site: liver; lesion: hepatocellular adenoma; dosed 78 weeks; study length 104 weeks
endpointName: TD50
Form entry: enter the amount, then its unit.

input: Please list TD50 recorded for the compound ClCCl
output: 2780 mg/kg/day

----------
# Test system: rodent lifetime carcinogenesis bioassay, tumor incidence TD50
# testDetails: carcinogenic potency in animals, long-term in vivo studies, CPDB compilation (AID 1745844)
# conditionsUsed: mouse; strain ICR/Jcl; males; in drinking water; site: lung; lesion: adenoma; dosed 104 weeks; study length 104 weeks
Calls of active or inactive are those of the source. No rule for the calls is given here.
endpointName: TD50

input: Please list TD50 recorded for the compound O=S(O)O
output: 84800 mg/kg/day (inactive)

----------
# Test system: rodent lifetime carcinogenesis bioassay, tumor incidence TD50
# testDetails: carcinogenic potency in animals, long-term in vivo studies, CPDB compilation (AID 1745844)
# conditionsUsed: mouse; strain B6C3F1; females; in feed; site: liver; lesion: hepatocellular adenoma + hepatocellular carcinoma + neoplastic nodule; dosed 80 weeks; study length 92 weeks
Measured TD50 values are reported for all entries that follow.
Please reply with the bare figure in mg/kg/day and do not write the unit itself.

compound="ClC1C2(Cl)C3C4C5OC5C5C4C1(Cl)C(Cl)(C53)C2(Cl)Cl (configuration not stated)" endpointname=TD50 number=2.53

Next compound, TD50 to be filled in.
input: Please list TD50 recorded for the compound COP(=O)(OC)OC(=CCl)c1cc(Cl)c(Cl)cc1Cl
output: 905

----------
# Test system: rodent lifetime carcinogenesis bioassay, tumor incidence TD50
# testDetails: carcinogenic potency in animals, long-term in vivo studies, CPDB compilation (AID 1745844)
# conditionsUsed: mouse; strain Charles River CD1; females; in feed; site: lung; lesion: adenoma; dosed 36 weeks; study length 68 weeks
endpointName: TD50 (mg/kg/day)
Please reply with the bare figure in mg/kg/day and do not write the unit itself.

input: Please list TD50 recorded for the compound O=CNc1nc(-c2ccc([N+](=O)[O-])o2)cs1
output: 1120

----------
# Tested on: rodent lifetime carcinogenesis bioassay, tumor incidence TD50
# testDetails: carcinogenic potency in animals, long-term in vivo studies, CPDB compilation (AID 1745844)
# conditionsUsed: mouse; strain B6C3F1; males; by gavage; site: forestomach; lesion: squamous-cell papilloma; dosed 104 weeks; study length 104 weeks
endpointName: TD50
Form entry: enter the amount, then its unit.

input: Please list TD50 recorded for the compound C/C=C/C=C/C=O
output: 354 mg/kg/day

----------
# System: rodent lifetime carcinogenesis bioassay, tumor incidence TD50
# testDetails: carcinogenic potency in animals, long-term in vivo studies, CPDB compilation (AID 1745844)
# conditionsUsed: rat; strain Wistar; males; inhaled; site: lung; lesion: angiosarcoma; dosed 52 weeks; study length 78 weeks
endpointName: TD50

input: Please list TD50 recorded for the compound C=CCl
output: 193 mg/kg/day

----------
# System: rodent lifetime carcinogenesis bioassay, tumor incidence TD50
# testDetails: carcinogenic potency in animals, long-term in vivo studies, CPDB compilation (AID 1745844)
# conditionsUsed: rat; strain Donryu; females; in drinking water; site: esophagus; lesion: one or several types; types not named; dosed 65 weeks; study length 65 weeks
endpointName: TD50 (mg/kg/day)
Please reply with the bare figure in mg/kg/day and do not write the unit itself.

input: Please list TD50 recorded for the compound CCCCCN(N=O)C(N)=O
output: 0.967

----------
# System: rodent lifetime carcinogenesis bioassay, tumor incidence TD50
# testDetails: carcinogenic potency in animals, long-term in vivo studies, CPDB compilation (AID 1745844)
# conditionsUsed: rat; strain Fischer 344; males; in feed; site: skin; lesion: basal-cell adenoma + basal-cell carcinoma + keratoacanthoma + squamous-cell carcinoma + squamous-cell papilloma + trichoepitheliom; dosed 104 weeks; study length 105 weeks
endpointName: TD50

input: Identify measured TD50 obtained with rodent lifetime carcinogenesis bioassay, tumor incidence TD50 for OCC(CO)(CBr)CBr .
output: 166 mg/kg/day

----------
# System: rodent lifetime carcinogenesis bioassay, tumor incidence TD50
# testDetails: carcinogenic potency in animals, long-term in vivo studies, CPDB compilation (AID 1745844)
# conditionsUsed: mouse; strain B6C3F1; females; by gavage; site: liver; lesion: hepatocellular adenoma + hepatocellular carcinoma; dosed 103 weeks; study length 105 weeks
endpointName: TD50

compound=C=CC(=O)NCO result="74.8 mg/kg/day"
compound="CC(I)C1OCC(CO)O1 (stereo not given)" result="373 mg/kg/day"
compound=Oc1ccc(O)cc1 result="122 mg/kg/day"
compound=ClC=C(Cl)Cl result="411 mg/kg/day"

Next compound, TD50 to be filled in.
input: Please list TD50 recorded for the compound CC(Cl)CCl (stereo not given)
output: 346 mg/kg/day

----------
# Test system: rodent lifetime carcinogenesis bioassay, tumor incidence TD50
# testDetails: carcinogenic potency in animals, long-term in vivo studies, CPDB compilation (AID 1745844)
# conditionsUsed: rat; strain Wistar albino; males; i.p.; site: skin; lesion: neoplasm; dosed 26 weeks; study length 52 weeks
endpointName: TD50

input: Identify measured TD50 obtained with rodent lifetime carcinogenesis bioassay, tumor incidence TD50 for CN(N=O)C(=O)NCCC[C@H](N)C(=O)O .
output: 1.04 mg/kg/day

----------
# Tested on: rodent lifetime carcinogenesis bioassay, tumor incidence TD50
# testDetails: carcinogenic potency in animals, long-term in vivo studies, CPDB compilation (AID 1745844)
# conditionsUsed: dog; strain Beagle; males; in feed; site: any site (literature study); lesion: several types; types named in the paper; dosed 376 weeks; study length 397 weeks
The source made the active and inactive calls. How the calls were made is not given here.
endpointName: TD50

input: Please list TD50 recorded for the molecule ClC(Cl)Cl
output: 13.3 mg/kg/day (inactive)

----------
# System: rodent lifetime carcinogenesis bioassay, tumor incidence TD50
# testDetails: carcinogenic potency in animals, long-term in vivo studies, CPDB compilation (AID 1745844)
# conditionsUsed: rat; strain Sprague-Dawley; females; in feed; site: mammary gland; lesion: adenocarcinoma; dosed 46 weeks; study length 66 weeks
endpointName: TD50

compound=CN(C)/C=N/c1nnc(/C=C/c2ccc([N+](=O)[O-])o2)o1 result="20.4 mg/kg/day"

input: Identify measured TD50 obtained with rodent lifetime carcinogenesis bioassay, tumor incidence TD50 for CC(=O)Nc1nc(NC(C)=O)nc(-c2ccc([N+](=O)[O-])o2)n1 .
output: 29 mg/kg/day

input: Identify measured TD50 obtained with rodent lifetime carcinogenesis bioassay, tumor incidence TD50 for CC1CN(/N=C/c2ccc([N+](=O)[O-])o2)C(=O)N1 (stereo not given) .
output: 5.34 mg/kg/day

input: Identify measured TD50 obtained with rodent lifetime carcinogenesis bioassay, tumor incidence TD50 for Nc1nnc(-c2ccc([N+](=O)[O-])o2)o1 .
output: 7.98 mg/kg/day

----------
# Tested on: rodent lifetime carcinogenesis bioassay, tumor incidence TD50
# testDetails: carcinogenic potency in animals, long-term in vivo studies, CPDB compilation (AID 1745844)
# conditionsUsed: rat; strain Fischer 344; females; in feed; site: liver; lesion: hepatocellular adenoma; dosed 79 weeks; study length 79 weeks
endpointName: TD50
Form entry: enter the amount, then its unit.

input: Please list TD50 recorded for the compound CC(C)CCCCCCOC(=O)c1ccccc1C(=O)OCCCCCCC(C)C
output: 3440 mg/kg/day

----------
# System: rodent lifetime carcinogenesis bioassay, tumor incidence TD50
# testDetails: carcinogenic potency in animals, long-term in vivo studies, CPDB compilation (AID 1745844)
# conditionsUsed: rat; strain Fischer 344/Jcl; females; by gavage; site: clitoral gland; lesion: several types; types named in the paper; dosed 55 weeks; study length 104 weeks
endpointName: TD50

input: Please list TD50 recorded for the compound O=[N+]([O-])c1ccc2ccc3cccc4ccc1c2c34
output: 6.16 mg/kg/day
